- Tested on: MES-SA (Other Solid Carcinomas);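 further: after 72 h of two-drug dosing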
- Test description: Bliss excess, mean over the matrix (fraction); higher = more synergy
Measured endpoint: Bliss excess
A bare number is all that is needed in reply.

Checklist item: Bliss excess tested on MES-SA (Other Solid Carcinomas), entry CCN(CCO)CCCOc1ccc2c(Nc3cc(CC(=O)Nc4cccc(F)c4)[nH]n3)ncnc2c1 [AZD2811] + C=CCn1c(=O)c2cnc(Nc3ccc(N4CCN(C)CC4)cc3)nc2n1-c1cccc(C(C)(C)O)n1 [AZD1775] (first compound max 1 µM, partner max 1 µM) , value?;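 further: after 72 h of two-drug dosing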
0.0752

Would you kindly repeat that for Cc1c2c(nn1C)CSCc1cc(n(C)n1)CSc1cc(c3ccccc3c1)OCCCc1c(C(=O)O)n(C)c3c-2c(Cl)ccc13 [AZD5991] + CCN(CCO)CCCOc1ccc2c(Nc3cc(CC(=O)Nc4cccc(F)c4)[nH]n3)ncnc2c1 [AZD2811] (first compound max 1 µM, 7x7, partner max 1 µM) ?
0.138

Would you kindly repeat that for COc1cccc(OCCCN)c1-c1cc(Nc2cnc(C#N)cn2)n[nH]1 [Prexasertib] + CN(C)CCCOc1ccc(-c2ccc3ncc4c(c3c2)n(C2CCOCC2)c(=O)n4C)cn1 [AZD0156] (first compound max 1 µM, 7x7, partner max 1 µM) ?
0.0641

Would you kindly repeat that for Cn1cnc2c(F)c(Nc3ccc(Br)cc3Cl)c(C(=O)NOCCO)cc21 [Selumetinib] + CC(C)n1c(=O)n(C)c2cnc3cc(F)c(-c4ccc(OCCCN5CCCCC5)nc4)cc3c21 [AZD1390] (first compound max 10 µM, 7x7, partner max 0.3 µM) ?
-0.0335

Would you kindly repeat that for CC(=O)c1c(C)c2cnc(Nc3ccc(N4CCNCC4)cn3)nc2n(C2CCCC2)c1=O [Palbociclib] + CC1(C)CCC(CN2CCN(c3ccc(C(=O)NS(=O)(=O)c4ccc(NCC5CCOCC5)c([N+](=O)[O-])c4)c(Oc4cnc5[nH]ccc5c4)c3)CC2)=C(c2ccc(Cl)cc2)C1 [Venetoclax] (first compound max 10 µM, 7x7, partner max 1 µM) ?
0.0594

Would you kindly repeat that for Cc1c2c(nn1C)CSCc1cc(n(C)n1)CSc1cc(c3ccccc3c1)OCCCc1c(C(=O)O)n(C)c3c-2c(Cl)ccc13 [AZD5991] + Cn1cnc2c(F)c(Nc3ccc(Br)cc3Cl)c(C(=O)NOCCO)cc21 [Selumetinib] (first compound max 1 µM, 7x7, partner max 3 µM) ?
-0.0247

Would you kindly repeat that for COc1cccc(OCCCN)c1-c1cc(Nc2cnc(C#N)cn2)n[nH]1 [Prexasertib] + CCc1c2c(nc3ccc(O)cc13)-c1cc3c(c(=O)n1C2)COC(=O)[C@]3(O)CC [SN-38] (first compound max 1 µM, 7x7, partner max 0.3 µM) ?
-0.0714

* * *

Provide the reported combination Emax of each item.
- Tested on: BICR78 (Oral Cavity Carcinoma)
- Test description: combination Emax (second highest fraction inhibited in the dose matrix, 72 h); higher = more inhibition; extreme values may be limits of the assay
A bare number is all that is needed in reply.

Checklist item: combination Emax tested on BICR78 (Oral Cavity Carcinoma), entry C[C@@H](Oc1cc(-c2cnn(C3CCNCC3)c2)cnc1N)c1c(Cl)ccc(F)c1Cl [Crizotinib] + CC1=C(C(=CC=C1)Cl)NC(=O)C2=CN=C(S2)NC3=CC(=NC(=N3)C)N4CCN(CC4)CCO [Dasatinib] (first compound max 10 µM, 7x7, partner max 2 µM) , value?
0.829

Would you kindly repeat that for C[C@@H](c1ccc2nccn2c1)n1nnc2ncc(-c3cnn(C)c3)nc21 [Savolitinib] + CC1(C)CCC(CN2CCN(c3ccc(C(=O)NS(=O)(=O)c4ccc(NCC5CCOCC5)c([N+](=O)[O-])c4)c(Oc4cnc5[nH]ccc5c4)c3)CC2)=C(c2ccc(Cl)cc2)C1 [Venetoclax] (first compound max 1 µM, 7x7, partner max 1 µM) ?
0.201

Would you kindly repeat that for NC1(C(=O)N[C@@H](CCO)c2ccc(Cl)cc2)CCN(c2ncnc3[nH]ccc23)CC1 [Capivasertib] + CC(=O)c1c(C)c2cnc(Nc3ccc(N4CCNCC4)cn3)nc2n(C2CCCC2)c1=O [Palbociclib] (first compound max 10 µM, 7x7, partner max 10 µM) ?
0.424
